Fold increase h-GABA-A α5β3γ2 oocyte reference
- measured-target: h-GABA-A α5β3γ2 (Homo sapiens (Human), UniProt P18507+P31644)
- Sequence (P31644 32-462): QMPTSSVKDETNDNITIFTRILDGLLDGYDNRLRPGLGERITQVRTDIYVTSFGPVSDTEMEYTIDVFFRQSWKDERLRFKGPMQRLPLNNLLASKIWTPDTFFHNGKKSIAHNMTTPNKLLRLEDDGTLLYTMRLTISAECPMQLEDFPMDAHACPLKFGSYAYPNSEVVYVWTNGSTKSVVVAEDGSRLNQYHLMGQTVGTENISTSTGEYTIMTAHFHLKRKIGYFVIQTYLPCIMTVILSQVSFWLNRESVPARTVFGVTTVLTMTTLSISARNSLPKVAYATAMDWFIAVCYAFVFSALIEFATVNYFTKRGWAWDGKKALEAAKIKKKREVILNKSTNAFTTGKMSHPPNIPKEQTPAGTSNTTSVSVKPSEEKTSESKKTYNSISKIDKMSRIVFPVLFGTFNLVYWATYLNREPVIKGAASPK
- Sequence (P28472 26-473 partner): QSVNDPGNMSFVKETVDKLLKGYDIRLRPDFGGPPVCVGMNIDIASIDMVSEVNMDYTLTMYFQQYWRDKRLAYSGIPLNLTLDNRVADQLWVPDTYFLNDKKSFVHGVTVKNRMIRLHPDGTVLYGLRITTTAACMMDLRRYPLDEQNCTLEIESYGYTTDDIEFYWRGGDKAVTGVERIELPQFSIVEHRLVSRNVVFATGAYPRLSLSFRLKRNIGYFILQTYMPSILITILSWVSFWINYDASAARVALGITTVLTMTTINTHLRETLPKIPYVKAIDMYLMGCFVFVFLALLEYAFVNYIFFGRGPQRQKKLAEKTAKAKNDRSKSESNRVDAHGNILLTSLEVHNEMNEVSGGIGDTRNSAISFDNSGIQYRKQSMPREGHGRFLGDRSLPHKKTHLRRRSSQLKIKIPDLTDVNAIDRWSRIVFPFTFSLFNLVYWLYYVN
- Sequence (P18507 40-475): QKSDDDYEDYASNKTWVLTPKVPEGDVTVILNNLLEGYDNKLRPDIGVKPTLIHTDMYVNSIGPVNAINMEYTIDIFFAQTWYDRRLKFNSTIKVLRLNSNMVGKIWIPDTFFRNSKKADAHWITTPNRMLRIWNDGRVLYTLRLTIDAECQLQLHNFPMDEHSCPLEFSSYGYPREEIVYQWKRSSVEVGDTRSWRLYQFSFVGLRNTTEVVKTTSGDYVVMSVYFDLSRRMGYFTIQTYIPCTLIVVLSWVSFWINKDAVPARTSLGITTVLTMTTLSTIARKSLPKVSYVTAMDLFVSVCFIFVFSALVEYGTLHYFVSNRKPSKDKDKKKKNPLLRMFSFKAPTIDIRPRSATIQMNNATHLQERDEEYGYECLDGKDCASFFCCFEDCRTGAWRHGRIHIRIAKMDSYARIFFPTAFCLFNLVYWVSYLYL
- protocol-summary: Two-electrode voltage clamp electrophysiology in Xenopus oocytes expressing GABAA receptors, modulation of GABA EC20 current
- Assay type: cell-based
- experimental-parameters: Xenopus oocytes, GABA EC20, test compound at approx. 30 fold its Ki
- Protocol: Xenopus laevis oocytes at maturation stages V-VI were used for the expression of cloned mRNA encoding GABAA receptor subunits. Oocytes ready for RNA micro-injection were bought from Ecocyte, Castrop-Rauxel, Germany and stored in modified Barth's medium (composition in mM: NaCl 88, KCl 1, NaHCO32.4, HEPES 10, MgSO4 0.82, CaNO3 0.33, CaCl2) 0.33, pH=7.5) at 20° C. until the experiment. […]
API doc: respond with a numeric literal and nothing else, no unit.

Illustrative cases are given below, each with its answer.
Cc1ccc(-c2noc(C3CC3)c2COc2ccc(C(=O)NC3(C)COC3)nn2)cn1 2.73
CCO[C@@H]1CC[C@@H](NC(=O)c2ccc(OCc3c(-c4ccc(C)nc4)noc3C)nn2)C1 1.63
Cc1ccc(-c2noc(C)c2COc2ccc(C(=O)N[C@@H]3CCCC(F)(F)[C@H]3O)cn2)cn1 1.51

Okay, next one:
Please report the recorded Fold increase h-GABA-A α5β3γ2 oocyte for `CCOC(=O)C1(NC(=O)c2ccc(OCc3c(-c4ccc(C)nc4)noc3C)nn2)CC1` .
1.72

Origin of the recorded values: patent US20240279218A1
